Each item that follows carries a reported inhibition at 10 µM.
Molecular target: HIV protease (Human immunodeficiency virus type 1 group M subtype B, UniProt P04585)
Construct: and purified protease
Assay: HIV Protease Assay
Type: biochemical
Details: pH 5.5, 10 μM inhibitor, 4% DMSO, 450 μM substrate, pH 5.5, 30 minutes at 37° C., RP-HPLC; read-out: HIV Protease % Inhibition at 10 μM
Return type: number; implicit unit %.

Completed entries (count: 4):
{"columns": ["Molecule", "Readout Label", "Observed Result"],
 "data": [
  ["CC(C)(C)OC(=O)N[C@@H](Cc1ccccc1)[C@H](O)CNC[C@@H](O)[C@H](Cc1ccccc1)NC(=O)OC[C@@H](O)CO", "inhibition at 10 µM", 92],
  ["CC(C)(C)OC(=O)N[C@@H](Cc1ccccc1)[C@H](O)CNC[C@@H](O)[C@H](Cc1ccccc1)NC(=O)C1(O)CCCCC1(C)C (single isomer, unassigned; isomer a)", "inhibition at 10 µM", 97],
  ["CN(C(=O)OC(C)(C)C)[C@@H](Cc1ccccc1)[C@H](O)CNC[C@@H](O)[C@H](Cc1ccccc1)NC(=O)OC(C)(C)C", "inhibition at 10 µM", 65],
  ["CC(C)(C)OC(=O)N[C@@H](Cc1ccccc1)[C@H](O)CNC[C@@H](O)[C@H](Cc1ccccc1)NC(=O)OC(C)(C)CCCOCc1ccccc1", "inhibition at 10 µM", 81]
]}

GET /values?readout=inhibition at 10 µM&item= CC(C)[C@H](N)C(=O)N[C@@H](Cc1ccccc1)[C@H](O)CNC[C@@H](O)[C@H](Cc1ccccc1)NC(=O)[C@@H](N)C(C)C 21
